# Lookup of reported log10 IC50 keyed by entry
molecular target: human TASK-3 (Homo sapiens, UniProt Q9NPC2); assay: Inhibition of recombinant TASK-3 in stably transfected CHO cells, KCl-induced depolarization, voltage-sensitive dye (B-2); format: cell-based; design: expressed in transfected cells; host or cells: stably transfected CHO cells; conditions: depolarization induced by 40 mM potassium chloride, some mean values from multiple determinations
Sequence (Q9NPC2 whole entry): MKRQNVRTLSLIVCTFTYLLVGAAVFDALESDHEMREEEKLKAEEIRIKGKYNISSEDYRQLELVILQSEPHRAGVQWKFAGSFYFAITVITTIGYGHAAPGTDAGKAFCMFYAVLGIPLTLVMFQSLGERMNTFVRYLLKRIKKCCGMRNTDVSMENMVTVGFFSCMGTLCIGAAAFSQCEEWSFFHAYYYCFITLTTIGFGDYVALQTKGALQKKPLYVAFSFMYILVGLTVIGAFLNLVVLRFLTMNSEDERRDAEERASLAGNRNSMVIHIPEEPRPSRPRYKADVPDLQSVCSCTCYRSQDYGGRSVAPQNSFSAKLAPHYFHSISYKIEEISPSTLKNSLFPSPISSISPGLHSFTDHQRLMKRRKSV
MEASURED ENDPOINT: log10 IC50 (log10 of the value in nM)

- O=C(C1CCCCC1)N1CC2CCC(C1)N2Cc1c(-c2ccc(Cl)cc2)nc2ccccn12 [Example 93]: 2.71
- O=C(c1cccc(Cl)c1)N1CC2CCC1CN2Cc1c(-c2ccc(Cl)cc2)nc2ccccn12 (single isomer, unassigned) [Example 49]: 1.08
- O=C(c1cccc(OC(F)(F)F)c1)N1C2COCC1CN(Cc1c(-c3ccc(Cl)cc3)nc3ccccn13)C2 [Example 72]: 2.08
- O=C(c1ccccc1F)N1C2CC1CN(Cc1c(-c3ccc(Cl)cc3)nc3ccccn13)C2 [Example 117]: 2.72
- COc1ccc(F)c(C(=O)N2CC3CCC2CN3Cc2c(-c3ccc(C(C)C)nc3)nc3ccccn23)n1 (single isomer, unassigned) [Example 127]: 2.83
- Cc1cccc(C)c1NC(=O)N1C2CCC1CN(Cc1c(-c3ccc(Cl)cc3)nc3ccccn13)C2 [Example 157]: 0.87
- O=C(C1CCCCC1)N1C2CC1CN(Cc1c(-c3ccc(Cl)cc3)nc3ccccn13)C2 [Example 118]: 3.00
- O=C(c1ccccc1F)N1CC2CCC(C1)N2Cc1c(-c2ccc(Cl)cc2)nc2ccccn12 [Example 87]: 2.20
- O=C(c1ccccc1F)N1CC2CCC1CN2Cc1c(-c2ccc(Cl)cn2)nc2ccccn12 (stereo not drawn) [Example 64]: 1.23
- COC(=O)N1C2CCC1CN(Cc1c(-c3ccc(Cl)cc3)nc3ccccn13)C2 [Example 184]: 1.86
- O=C(Nc1c(Cl)cccc1Cl)N1C2CCC1CN(Cc1c(-c3ccc(Cl)cc3)nc3ccccn13)C2 [Example 156]: 1.18
- O=C(N1CCCC1)N1C2CCC1CN(Cc1c(-c3ccc(Cl)cc3)nc3ccccn13)C2 [Example 176]: 1.00
- COc1ccc(F)c(C(=O)N2CC3CCC2CN3Cc2c(-c3ccc(Cl)cn3)nc3ccccn23)n1 (single isomer, unassigned; enantiomer 1) [Example 24]: 0.65
- CC(C)c1ccccc1C(=O)N1C2CCC1CN(Cc1c(-c3ccc(Br)cc3)nc3ccccn13)C2 [Example 141]: 1.77
- CC(C)c1ccc(-c2nc3ccccn3c2CN2C3CCC2CN(C(=O)c2ccccc2F)C3)cc1 [Example 94]: 2.11

----------
biological target: human TASK-3 (Homo sapiens, UniProt Q9NPC2); assay: Inhibition of recombinant TASK-3 in stably transfected CHO cells, KCl-induced depolarization, voltage-sensitive dye (B-2); assay type: cell-based; set-up: expressed in transfected cells; host or cells: stably transfected CHO cells; conditions: depolarization induced by 40 mM potassium chloride, some mean values from multiple determinations
pIC50: −log10 of the molar value.
MEASURED ENDPOINT: pIC50

- O=C(Nc1ccccc1Cl)N1C2CCC1CN(Cc1c(-c3ccc(Cl)cc3)nc3ccccn13)C2: 7.59
- CCOC(=O)N1C2COCC1CN(Cc1c(-c3ccc(Cl)cc3)nc3ccccn13)C2: 8.09
- COc1cccc(C(=O)N2CC3CCC2CN3Cc2c(-c3ccc(Cl)cn3)nc3ccccn23)n1 (centres unmarked) [Example 65]: 6.34
- COc1cccc(C(=O)N2C3COCC2CN(Cc2c(-c4ccc(Cl)cc4)nc4ccccn24)C3)c1: 6.80
- CC(C)NC(=O)N1C2COCC1CN(Cc1c(-c3ccc(Cl)cc3)nc3ccccn13)C2: 6.89
- COc1cccc(C(=O)N2C3CCC2CN(Cc2c(-c4ccc(Br)cc4)nc4ccccn24)C3)c1: 7.80
- O=C(c1ccccc1F)N1C2COCC1CN(Cc1c(-c3ccc(Cl)cc3)nc3ccccn13)C2: 7.00
- CC(C)(C)OC(=O)N1C2CCC1CN(Cc1c(-c3ccc(Cl)cn3)nc3ccccn13)C2: 6.07

----------
# Lookup of reported pIC50 keyed by entry
biological target: human TASK-3 (Homo sapiens); assay: Inhibition of recombinant TASK-3 in stably transfected CHO cells, KCl-induced depolarization, voltage-sensitive dye (B-2); type: cell-based; design: expressed in transfected cells; host or cells: stably transfected CHO cells; conditions: depolarization induced by 40 mM potassium chloride, some mean values from multiple determinations
pIC50: −log10 of the molar value.
MEASURED ENDPOINT: pIC50

* CC(C)(C)OC(=O)N1C2COCC1CN(Cc1c(-c3ccc(Cl)cc3)nc3ccccn13)C2 [Example 4] | 7.37
* Cc1cccc(Cl)c1NC(=O)N1C2COCC1CN(Cc1c(-c3ccc(Cl)cc3)nc3ccccn13)C2 [Example 169] | 6.96
* COc1ccc(C)c(C(=O)N2C3CC2CN(Cc2c(-c4ccc(Cl)cc4)nc4ccccn24)C3)n1 [Example 142] | 7.01
* COc1ccc(F)c(C(=O)N2C3COCC2CN(Cc2c(-c4ccc(Cl)cc4)nc4ccccn24)C3)n1 [Example 30] | 7.68
* COc1cccc(C(=O)N2CC3CCC2CN3Cc2c(-c3ccc(C(C)C)cc3)nc3ccccn23)n1 (single isomer, unassigned) [Example 60] | 6.21
* O=C(c1ccccc1F)N1CC2CCC(C1)N2Cc1c(-c2ccc(Br)cc2)nc2ccccn12 [Example 82] | 6.38
* Cc1ccccc1C(=O)N1CC2CCC(C1)N2Cc1c(-c2ccc(Cl)cc2)nc2ccccn12 [Example 90] | 7.10
* COc1cccc(C(=O)N2C3COCC2CN(Cc2c(-c4ccc(Cl)cc4)nc4ccccn24)C3)n1 [Example 29] | 7.30
* COc1cccc(C(=O)N2CC3CCC(C2)N3Cc2c(-c3ccc(C(C)C)cc3)nc3ccccn23)n1 [Example 95] | 6.46
* CCN(C(=O)N1C2CCC1CN(Cc1c(-c3ccc(Cl)cc3)nc3ccccn13)C2)C1CCCCC1 [Example 175] | 6.70
* COc1ccc(C)c(C(=O)N2CC3CCC2CN3Cc2c(-c3ccc(C(C)C)cc3)nc3ccccn23)n1 (single isomer, unassigned) [Example 137] | 7.85
* CC(C)(C)OC(=O)N1CC2CCC(C1)N2Cc1c(-c2ccc(Cl)cc2)nc2ccccn12 [Example 6] | 6.39
* O=C(Nc1ccccc1F)N1C2CCC1CN(Cc1c(-c3ccc(Cl)cc3)nc3ccccn13)C2 [Example 155] | 6.68
* O=C(c1cccc(OC2CCC2)n1)N1C2COCC1CN(Cc1c(-c3ccc(Cl)cc3)nc3ccccn13)C2 [Example 31] | 7.59
* CCOc1cccc(C(=O)N2C3CC2CN(Cc2c(-c4ccc(Cl)cc4)nc4ccccn24)C3)c1 [Example 122] | 6.92

----------
molecular target: human TASK-1 (Homo sapiens, UniProt O14649); experiment: Two-electrode voltage clamp analysis of human TASK-1 channel in Xenopus laevis oocytes (B-1); assay type: cell-based; design: expressed in transfected cells; host or cells: Xenopus laevis oocytes injected with cRNA; details: Xenopus laevis oocytes injected with TASK-1 cRNA, 21-22° C.
Sequence (O14649 whole entry): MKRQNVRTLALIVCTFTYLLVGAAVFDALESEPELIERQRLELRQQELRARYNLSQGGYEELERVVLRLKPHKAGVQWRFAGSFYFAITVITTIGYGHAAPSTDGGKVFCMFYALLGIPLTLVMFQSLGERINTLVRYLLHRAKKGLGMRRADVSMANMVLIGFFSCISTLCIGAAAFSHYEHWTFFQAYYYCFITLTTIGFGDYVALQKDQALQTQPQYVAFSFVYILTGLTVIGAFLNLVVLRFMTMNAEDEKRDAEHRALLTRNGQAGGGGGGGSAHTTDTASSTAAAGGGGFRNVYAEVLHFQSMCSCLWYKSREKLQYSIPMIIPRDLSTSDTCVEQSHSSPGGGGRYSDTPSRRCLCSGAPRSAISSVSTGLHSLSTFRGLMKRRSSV
pIC50: −log10 of the molar value.
MEASURED ENDPOINT: pIC50

* COc1cccc(C(=O)N2CC3CCC2CN3Cc2c(-c3ccc(Cl)cn3)nc3ccccn23)n1 (single isomer, unassigned; enantiomer 1) | 7.27
* O=C(c1ccccc1F)N1C2CCC1CN(Cc1c(-c3ccc(Cl)cc3)nc3ccccn13)C2 | 8.06
* COc1cccc(C(=O)N2C3CCC2CN(Cc2c(-c4ccc(Cl)cc4)nc4ccccn24)C3)n1 | 7.22
* O=C(C1CCCC1)N1CC2CCC(C1)N2Cc1c(-c2ccc(Cl)cc2)nc2ccccn12 | 7.77
* COc1ccc(F)c(C(=O)N2CC3CCC2CN3Cc2c(-c3ccc(C(C)C)nc3)nc3ccccn23)n1 (single isomer, unassigned) | 6.89
* O=C(C1CCCO1)N1C2CC1CN(Cc1c(-c3ccc(Cl)cc3)nc3ccccn13)C2 (racemic) | 7.64

----------
# Lookup of reported IC50 keyed by entry
target: UniProtKB O14649; assay: Two-electrode voltage clamp analysis of human TASK-1 channel in Xenopus laevis oocytes (B-1); assay type: cell-based; parameters: expressed in transfected cells; host or cells: Xenopus laevis oocytes injected with cRNA; conditions: Xenopus laevis oocytes injected with TASK-1 cRNA, 21-22° C.
MEASURED ENDPOINT: IC50 (nM)

• COc1cccc(C(=O)N2C[C@H]3CC[C@@H]2CN3Cc2c(-c3ccc(Cl)cc3)nc3ccccn23)n1 [Example 34] = 18.6
• COc1cccc(C(=O)N2CC3CCC(C2)N3Cc2c(-c3ccc(Cl)cc3)nc3ccccn23)n1 [Example 92] = 13.5
• COc1cccc(C(=O)N2C[C@@H]3CC[C@H]2CN3Cc2c(-c3ccc(Cl)cc3)nc3ccccn23)n1 (single isomer, unassigned; enantiomer 1) [Example 21] = 27.3
